Each recorded value in this set is attributed to paper PMC5378893.

target of assay: T1, extracellular domain (ECD) of human epidermal growth factor receptor 2 (HER2) (Homo sapiens, UniProt P04626)
T1 construct: human epidermal growth factor receptor 2 (HER2), extracellular domain; also called HER2/ECD
measurement notes: SPR; BIAcore T200; HER2/ECD immobilised on a CM5 chip by amine coupling to 1000 RU; IgG flowed in PBST (0.05% Tween 20) at 30 uL/min; regeneration 10 mM glycine pH 1.5; global fit to a 1:1 binding model
cond: both partners purified
measurement name: koff (s⁻¹)
The answer is to be given in s⁻¹; state only the numeric part.

Some binders with known koff results, for comparison:
{"binder": "GH2-36 IgG (antibody, V domains shown, source: HEK293-F, transient transfection, purified (Protein A, Superdex 200)) VH: EVQLVESGGGLVQPGGSLRLSCAASGFTIGGGGIHWVRQAPGKGLEWVAYIGPYGGYTSYADSVKGRFTISADTSKNTAYLQMNSLRAEDTAVYYCARFHDHIGGIMDYWGQGTLVTVSS VL: DIQMTQSPSSLSASVGDRVTITCRASQDVNSNVAWYQQEPGKAPKLLIYFSSGLYSGVPSRFSGSGSGTDFTLTISSLQPEDFATYYCQQYYNWPLTFGQGTKVEIK", "observed value": 7.7}
{"binder": "M64 IgG (mouse anti-HER2/ECD) (antibody, V domains shown, mouse VL; L49~L53 YWAST; L91~L96 HYSTPY; mouse VH; H50~H58 RIDPANGNTK; H96~H100B YRGAM; recombinant IgG from a scFv of an immunized mouse's phage library; source: HEK293-F, transient transfection, purified (Protein A, Superdex 200)) VH: EVQLQQSGAELVKPGASVKLSCTASGFNIKNTYMHWVKQRPEQGLEWIGRIDPANGNTKYDPKLQGKATITADTSSNTAYLHLSSLTSEDTAVYYCVPYYRGAMDYWGQGTSVTVSS VL: DIQMNQSHKFMSTSVGDRVSITCKASQDVSTAVAWYQQKPGQSPKLLIYWASTRHTGVPGRFTGSGSGADYTLTISSVQAEDLALYYCQQHYSTPYTFGGGTKLEIK", "observed value": 0.000337}
{"binder": "GH2-54 IgG (antibody, V domains shown, source: HEK293-F, transient transfection, purified (Protein A, Superdex 200)) VH: EVQLVESGGGLVQPGGSLRLSCAASGFTISDGSIHWVRQAPGKGLEWVAFIGPYWGFTYYADSVKGRFTISADTSKNTAYLQMNSLRAEDTAVYYCARFVNWVHYGMDYWGQGTLVTVSS VL: DIQMTQSPSSLSASVGDRVTITCRASQDVNDNVAWYQQKPGKAPKLLIFGSSSLYSGVPSRFSGSGSGTDFTLTISSLQPEDFATYYCQQGWNYPFTFGQGTKVEIK", "observed value": 0.0128}
{"binder": "GH2-3 IgG (antibody, V domains shown, source: HEK293-F, transient transfection, purified (Protein A, Superdex 200)) VH: EVQLVESGGGLVQPGGSLRLSCAASGFTISGGWIHWVRQAPGKGLEWVAGIWPSGGSTSYADSVKGRFTISADTSKNTAYLQMNSLRAEDTAVYYCARFYFGFGDLMDYWGQGTLVTVSS VL: DIQMTQSPSSLSASVGDRVTITCRASQDVNNNVAWYQQKPGKAPKLLIYGARYLYSGVPSRFSGSGSGTDFTLTISSLQPEDFATYYCQQFGGGPLTFGQGTKVEIK", "observed value": 0.000502}

Turning now to a further binder:
Incoming: Need koff, item GH2-98 IgG (antibody, V domains shown, source: HEK293-F, transient transfection, purified (Protein A, Superdex 200)) VH: EVQLVESGGGLVQPGGSLRLSCAASGFTINNYGIHWVRQAPGKGLEWVAGIGPSWGFTYYADSVKGRFTISADTSKNTAYLQMNSLRAEDTAVYYCARFGFYNDGFMDYWGQGTLVTVSS VL: DIQMTQSPSSLSASVGDRVTITCRASQDVGSGVAWYQQKPGKAPKLLIYFSASLYSGVPSRFSGSGSGTDFTLTISSLQPEDFATYYCQQYYNWPLTFGQGTKVEIK
Outgoing: 0.0224
